target: LMPTP-A (Low Molecular Weight Protein Tyrosine Phosphatase-A) enzyme (Homo sapiens (Human), UniProt P24666); assay: LMPTP primary screening / LMPTP (OMFP) enzyme inhibition assay, fluorescence intensity; type: biochemical; conditions: LMPTP-A, OMFP substrate, method of Example 2; read-out: IC50
Sequence (P24666 whole entry): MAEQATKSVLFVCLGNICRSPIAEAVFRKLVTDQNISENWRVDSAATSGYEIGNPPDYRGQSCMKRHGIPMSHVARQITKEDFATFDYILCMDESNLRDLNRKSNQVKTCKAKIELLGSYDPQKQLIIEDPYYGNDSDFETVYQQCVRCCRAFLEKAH
pIC50: −log10 of the molar value.
readout label: pIC50

Sample answers from the record:
O=C(NC1CCCC1)c1ccc(-c2cc(NCCCN3CCCCC3)c3ccccc3n2)cc1    6.10 to 6.70
COc1ccc(-c2cc(Nc3ccc(CC4CCN(C(C)=O)CC4)cc3)c3ccccc3n2)cc1    5.30 to 6.10
COc1ccc(-c2cc(Nc3cccc(Cc4nn[nH]n4)c3)c3ccccc3n2)cc1    5.30 to 6.10

For each listed entry, give its pIC50.
1. CC(C)(C)OC(=O)n1c(-c2cc(NCCCN3CCCCC3)c3ccccc3n2)cc2ccccc21
2. COc1ccc(-c2cc(NCCCN3CCCCC3)c3ccccc3n2)cn1
3. c1csc(-c2cc(NCCCN3CCCCC3)c3ccccc3n2)c1
4. CN(C)c1ccc(-c2cc(N(C)C)c3ccccc3n2)cc1
5. c1ccc2[nH]c(-c3cc(NCCCN4CCCCC4)c4ccccc4n3)cc2c1
6. COc1ccc(-c2cc(Nc3cccc(N(C)C)c3)c3ccccc3n2)cc1

# output
< 5.30
5.30 to 6.10
5.30 to 6.10
< 5.30
< 5.30
5.30 to 6.10

Give pIC50 for each listed item.
1. COc1ccc(-c2cc(Nc3ccc(Cl)cc3)c3ccccc3n2)cc1
2. CCN(CC)S(=O)(=O)c1cccc(-c2cc(NCCCN3CCCCC3)c3ccccc3n2)c1

# output
1. 5.30 to 6.10
2. < 5.30

---

target: LMPTP-A (Low Molecular Weight Protein Tyrosine Phosphatase-A) enzyme (Homo sapiens (Human), UniProt P24666); experiment: LMPTP primary screening / LMPTP (OMFP) enzyme inhibition assay, fluorescence intensity; type: biochemical; settings: synthesized compound; read-out: LMPTP (OMFP) IC50
readout label: pIC50
Numbers only, as −log10 of the molar value.

# input // returns reported pIC50 for input c1ccc(-c2cc(NCCN3CCCCC3)c3ccccc3n2)cc1 [Entry 41]
# output 5.43

---

assay: aqueous solubility (buffer pH 5.0-7.4, PBS); format: physicochemical; conditions: Pion's buffer, pH 7.4, aqueous buffer
readout label: solubility

# input Value lookup for solubility; key = COc1ccc(-c2cc(NCCCN3CCCCC3)c3ccccc3n2)cc1 [Compound D1]
# output > 112 µg/mL

---

target: LMPTP-A (Low Molecular Weight Protein Tyrosine Phosphatase-A) enzyme (Homo sapiens (Human)); assay: LMPTP primary screening / LMPTP (OMFP) enzyme inhibition assay, fluorescence intensity; assay type: biochemical; settings: LMPTP-A, OMFP substrate, method of Example 2; read-out: IC50
pIC50: −log10 of the molar value.
readout label: pIC50

Take a look at these entries with their results.
O=C(NC1CCNCC1)c1ccc(-c2cc(NCCCN3CCCCC3)c3ccccc3n2)cc1 [Compound I196]    6.10 to 6.70
c1ccc(-c2cc(NCCCN3CCOCC3)c3ccccc3n2)cc1 [Compound I179]    < 5.30
COc1ccc(-c2cc(Nc3cccc(C)n3)c3ccccc3n2)cc1 [Compound G67]    5.30 to 6.10
FC(F)(F)c1ccccc1-c1cc(Nc2ccccc2)c2ccccc2n1 [Compound G33]    < 5.30

Now take the following compound into account.
# input What value of pIC50 has been reported for the following compound? c1csc(-c2cc(NCCCC3CCCNC3)c3ccccc3n2)c1 (centres unmarked) [Compound I144]
# output 5.30 to 6.10
